Each entry below lists one item and its recorded Kd value.
# TEST_SYSTEM: T1, endogenous eosinophil eotaxin receptor (CC CKR3) on primary human eosinophils (human, UniProt P51677 1-355)
# T1 construct: The target as printed is 'eosinophils' (primary cells from allergic and asthmatic donors); It also says eosinophils express a much lower level of CC CKR1; also called primary eosinophils
# T1 sequence: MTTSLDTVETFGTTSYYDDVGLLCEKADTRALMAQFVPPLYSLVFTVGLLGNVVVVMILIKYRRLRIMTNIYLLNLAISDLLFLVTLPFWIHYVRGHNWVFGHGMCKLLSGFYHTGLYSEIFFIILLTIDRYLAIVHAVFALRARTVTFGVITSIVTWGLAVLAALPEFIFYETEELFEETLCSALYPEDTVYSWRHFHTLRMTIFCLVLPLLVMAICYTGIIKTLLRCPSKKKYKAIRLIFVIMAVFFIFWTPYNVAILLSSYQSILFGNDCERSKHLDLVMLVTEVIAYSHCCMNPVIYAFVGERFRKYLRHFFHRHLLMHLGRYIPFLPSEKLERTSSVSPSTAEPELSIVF
# PROTOCOL_TEXT: competition against 125I-MCP-3, primary eosinophils
The number alone won't do; follow it with the unit.

Kd measured on RANTES (ligand, UniProt P13501 24-91, looked up) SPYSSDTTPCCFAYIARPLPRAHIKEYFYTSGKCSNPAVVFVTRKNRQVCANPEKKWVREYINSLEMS = 900 pM

What the record says about murine eotaxin (ligand, UniProt P48298 24-97, looked up) HPGSIPTSCCFIMTSKKIPNTLLKSYKRITNNRCTLKAIVFKTRLGKEICADPKKKWVQDATKHLDQKLQTPKP : Kd is 200 pM
